B1: Retinoic acid receptor beta, residues 85 to 161; numbered along this chain, P10826 (parent)
chain: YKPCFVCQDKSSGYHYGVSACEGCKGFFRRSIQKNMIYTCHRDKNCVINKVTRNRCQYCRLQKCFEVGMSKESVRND

- Variants of: B1
- assay name: abundance fitness (aPCA) (normalised: wild type 0, dead -1); higher = more abundant; growth selection in yeast, the domain comes from the species named
- condition label: Homo sapiens
measured quantity: abundance fitness

Worked cases, abundance fitness given:
[
  {
    "variant designation": "F5R",
    "measured quantity": "abundance fitness",
    "observed": -0.421
  },
  {
    "variant designation": "C4D",
    "measured quantity": "abundance fitness",
    "observed": -0.715
  },
  {
    "variant designation": "Q33V",
    "measured quantity": "abundance fitness",
    "observed": 0.045
  },
  {
    "variant designation": "I37G",
    "measured quantity": "abundance fitness",
    "observed": -0.152
  },
  {
    "variant designation": "C59S",
    "measured quantity": "abundance fitness",
    "observed": -0.294
  }
]

What does the data say about its abundance fitness? Entry: G23H
-0.114

What does the data say about its abundance fitness? Entry: M36T
0.051

What does the data say about its abundance fitness? Entry: N54P
-0.003
